assay_details: Approximate solubility of starting material in 20 solvents at RT
Assay type: physicochemical
measurement_setup: organic solvent or mixture, thermodynamic from solid, EtOH, RT
value_kind: solubility

Prompt line: Query: solubility; subject: O=C(/C=C/c1ccc2c(c1)CCN2S(=O)(=O)c1ccccc1)NO
Response line: 5500 to 11000 µg/mL

* * *

assay_details: Approximate solubility of starting material in 20 solvents at RT
Format: physicochemical
measurement_setup: organic solvent or mixture, thermodynamic from solid, MTBE, RT
value_kind: solubility

Prompt line: Query: solubility; subject: O=C(/C=C/c1ccc2c(c1)CCN2S(=O)(=O)c1ccccc1)NO
Response line: < 1000 µg/mL

* * *

assay_details: Approximate solubility of starting material in 20 solvents at RT
Format: physicochemical
measurement_setup: organic solvent or mixture, thermodynamic from solid, IPAc, RT
value_kind: solubility

Prompt line: Query: solubility; subject: O=C(/C=C/c1ccc2c(c1)CCN2S(=O)(=O)c1ccccc1)NO
Response line: < 1100 µg/mL

* * *

assay_details: Approximate solubility of starting material in 20 solvents at RT
Format: physicochemical
measurement_setup: organic solvent or mixture, thermodynamic from solid, IPA, RT
value_kind: solubility

Prompt line: Query: solubility; subject: O=C(/C=C/c1ccc2c(c1)CCN2S(=O)(=O)c1ccccc1)NO
Response line: 2000 to 5000 µg/mL

* * *

assay_details: Approximate solubility of starting material in 20 solvents at RT
Format: physicochemical
measurement_setup: organic solvent or mixture, thermodynamic from solid, n-Heptane, RT
value_kind: solubility

Prompt line: Query: solubility; subject: O=C(/C=C/c1ccc2c(c1)CCN2S(=O)(=O)c1ccccc1)NO
Response line: < 1000 µg/mL

* * *

assay_details: Approximate solubility of starting material in 20 solvents at RT
Format: physicochemical
measurement_setup: organic solvent or mixture, thermodynamic from solid, ACN, RT
value_kind: solubility

Prompt line: Query: solubility; subject: O=C(/C=C/c1ccc2c(c1)CCN2S(=O)(=O)c1ccccc1)NO
Response line: 9.5 to 19 mg/mL

* * *

assay_details: Approximate solubility of starting material in 20 solvents at RT
Assay type: physicochemical
measurement_setup: organic solvent or mixture, thermodynamic from solid, EtOAc, RT
value_kind: solubility

Prompt line: Query: solubility; subject: O=C(/C=C/c1ccc2c(c1)CCN2S(=O)(=O)c1ccccc1)NO [Type A]
Response line: 2000 to 5000 µg/mL

* * *

assay_details: Approximate solubility of starting material in 20 solvents at RT
Format: physicochemical
measurement_setup: water, thermodynamic from solid, H2O, RT
value_kind: solubility

Prompt line: Query: solubility; subject: O=C(/C=C/c1ccc2c(c1)CCN2S(=O)(=O)c1ccccc1)NO
Response line: < 1 mg/mL

* * *

assay_details: Approximate solubility of starting material in 20 solvents at RT
Type: physicochemical
measurement_setup: organic solvent or mixture, thermodynamic from solid, DMAc, RT
value_kind: solubility

Prompt line: Query: solubility; subject: O=C(/C=C/c1ccc2c(c1)CCN2S(=O)(=O)c1ccccc1)NO
Response line: > 40 mg/mL

* * *

assay_details: Approximate solubility of starting material in 20 solvents at RT
Format: physicochemical
measurement_setup: organic solvent or mixture, thermodynamic from solid, Acetone, RT
value_kind: solubility

Prompt line: Query: solubility; subject: O=C(/C=C/c1ccc2c(c1)CCN2S(=O)(=O)c1ccccc1)NO
Response line: > 40 mg/mL

* * *

assay_details: Approximate solubility of starting material in 20 solvents at RT
Type: physicochemical
measurement_setup: organic solvent or mixture, thermodynamic from solid, CHCl3, RT
value_kind: solubility

Prompt line: Query: solubility; subject: O=C(/C=C/c1ccc2c(c1)CCN2S(=O)(=O)c1ccccc1)NO
Response line: < 1000 µg/mL

meta.source: patent US12252469B2
